Test: Stability of analytes in rat plasma QC samples under processing and storage conditions
Type: in vitro ADME
Details: treated rat plasma sample, spiked 250 ng/mL, n = 6
Please provide measured Measured concentration, autosampler for 12h for the entries that follow.
Answers are plain numbers, in ng/mL.

As a guide, the following entries are already answered.
| Compound | Recorded value |
| --- | --- |
| O=c1c(O[C@@H]2O[C@H](CO)[C@H](O)[C@H](O)[C@H]2O)c(-c2ccc(O)c(O)c2)oc2cc(O)cc(O)c12 [Hyperoside] | 230.2 |
| O=c1cc(-c2ccc(O)c(O)c2)oc2cc(O)cc(O)c12 [Luteolin] | 244.9 |
| O=c1c(O)c(-c2ccc(O)cc2)oc2cc(O)cc(O)c12 [Kaempferol] | 254.0 |

Pending compound:
I have this compound here, C[C@@H]1O[C@@H](Oc2c(-c3ccc(O)c(O)c3)oc3cc(O)cc(O)c3c2=O)[C@H](O)[C@H](O)[C@H]1O [Quercitrin] , and I need its recorded Measured concentration, autosampler for 12h.
253.1

From: paper PMC6925736
